Catalogue of combination Emax readings, one per entry.
Test system: KYSE-270 (Esophageal Squamous Cell Carcinoma)
Test: combination Emax (second highest fraction inhibited in the dose matrix, 72 h); higher = more inhibition; extreme values may be limits of the assay

# COMPOUND, combination Emax
rows = [
    ("CC(=O)Nc1cccc(-n2c(=O)n(C3CC3)c(=O)c3c(Nc4ccc(I)cc4F)n(C)c(=O)c(C)c32)c1 [Trametinib] + Cc1nc(-c2cn3c(n2)-c2ccc(-c4cnn(C(C)(C)C(N)=O)c4)cc2OCC3)n(C(C)C)n1 [Taselisib] (first compound max 1 µM, 7x7, partner max 10 µM)", 0.8),
    ("CC1(C)CCC(CN2CCN(c3ccc(C(=O)NS(=O)(=O)c4ccc(NCC5CCOCC5)c([N+](=O)[O-])c4)c(Oc4cnc5[nH]ccc5c4)c3)CC2)=C(c2ccc(Cl)cc2)C1 [Venetoclax] + CCN(CCO)CCCOc1ccc2c(Nc3cc(CC(=O)Nc4cccc(F)c4)[nH]n3)ncnc2c1 [AZD2811] (first compound max 1 µM, 7x7, partner max 1 µM)", 0.716),
]
